Can you tell me IC50 for the items I'm about to list?
experiment: Cytotoxicity against human H460 cells after 48 hrs by MTT assay; format: functional, cell-based; conditions: NCI-H460, 48 h

Notebook: COC(=O)c1cc2c(o1)c1ccccc1n2Cc1ccccc1 , IC50 read as > 50 µM

Notebook: OCc1cc2c(o1)c1ccccc1n2Cc1ccccc1Cl , IC50 read as 30.5 µM

Notebook: OCc1cc2c(o1)c1ccccc1n2Cc1ccc(CO)s1 , IC50 read as > 50 µM

Notebook: OCc1cc2c(o1)c1ccccc1n2Cc1cccc(F)c1 , IC50 read as 50 µM

Notebook: COC(=O)c1cc2c(o1)c1ccccc1n2Cc1ccccc1OC , IC50 read as > 50 µM

Notebook: COC(=O)c1cc2c(o1)c1ccccc1n2Cc1cccc(F)c1 , IC50 read as > 50 µM

Notebook: COC(=O)c1ccc(Cn2c3ccccc3c3oc(C(=O)OC)cc32)cc1 , IC50 read as > 50 µM

Notebook: O=C(O)c1cc2c(o1)c1ccccc1n2Cc1ccccc1 , IC50 read as > 50 µM

Notebook: COC(=O)c1cc2c(o1)c1ccccc1n2Cc1ccc(OC)cc1 , IC50 read as > 50 µM

Notebook: OCc1ccc(Cn2c3ccccc3c3oc(CO)cc32)cc1 , IC50 read as > 50 µM

Notebook: OCc1cc2c(o1)c1ccccc1n2Cc1ccccc1F , IC50 read as > 50 µM

Notebook: COC(=O)c1cc2c(o1)c1ccccc1n2Cc1ccc2c(c1)OCO2 , IC50 read as > 50 µM

Notebook: COC(=O)c1cc2c(o1)c1ccccc1n2Cc1ccc(C(=O)OC)[se]1 , IC50 read as > 25 µM

Notebook: OCc1ccc(Cn2c3ccccc3c3oc(CO)cc32)o1 , IC50 read as 74.1 µM

Notebook: OCc1cc2c(o1)c1ccccc1n2Cc1ccccc1 , IC50 read as > 50 µM

Notebook: COC(=O)c1cc2c(o1)c1ccccc1n2Cc1ccc(Cl)cc1 , IC50 read as > 50 µM

Notebook: COc1ccc(Cn2c3ccccc3c3oc(CO)cc32)cc1 , IC50 read as 42.9 µM

Notebook: O=C(O)c1cc2[nH]c3ccccc3c2o1 , IC50 read as > 50 µM

Notebook: COC(=O)c1cc2[nH]c3ccccc3c2o1 , IC50 read as > 50 µM

Notebook: OCc1cc2c(o1)c1ccccc1n2Cc1ccc(Cl)cc1 , IC50 read as 31.3 µM

Notebook: CCn1c2ccccc2c2oc(C(=O)O)cc21 , IC50 read as > 50 µM

Notebook: CCn1c2ccccc2c2oc(CO)cc21 , IC50 read as 50 µM

Notebook: COC(=O)c1cc2c(o1)c1ccccc1n2C , IC50 read as 50 µM

Notebook: CCn1c2ccccc2c2oc(C(=O)OC)cc21 , IC50 read as > 50 µM

Notebook: COc1cccc(Cn2c3ccccc3c3oc(CO)cc32)c1 , IC50 read as 52 µM

Notebook: COC(=O)c1cc2c(o1)c1ccccc1n2Cc1ccccc1F , IC50 read as > 50 µM
